# Tested on: CD2F1 mice, L1210 leukemia ip, survival T/C
# ASSAY COMMENT: NCI In Vivo Anticancer Drug Screen. Data for tumor model L1210 Leukemia (intraperitoneal) in CD2F1 (CDF1) mice
# STATED CONDITIONS: endpoint: mean survival time; dose: 100.0 mg/kg/injection; schedule: Q01DX009 (ip); vehicle: saline; higher = longer survival
Inconclusive results and toxic doses are left out.
REPORTED PROPERTY: T/C

>>> result("COC(=O)C(N)CSCc1ccccc1 (stereo not given)")
"102 % of control"
>>> result("O=C1/C(=C/c2cccc([N+](=O)[O-])c2)CCc2ccccc21")
"94 % of control"
>>> result("CC(CO)(CO)[N+](=O)[O-]")
"98 % of control"
>>> result("CCC(=O)c1ccc(Cc2ccc(C(=O)CC)cc2)cc1")
"92 % of control"
>>> result("CCN(CC)C(=O)c1ccccc1")
"98 % of control"
>>> result("CCN=C(NCC)S(=O)O")
"90 % of control"
>>> result("COC(=O)N1C=Cc2ccccc2C1C#N (stereo not given)")
"88 % of control"
>>> result("C#CC(C)(C)CC(=O)O")
"102 % of control"
>>> result("CCCN1CCN(c2ccccc2)CC1")
"96 % of control"
>>> result("CCc1nc(N)nc(N)n1")
"100 % of control"
>>> result("CN1C(=S)c2ccccc2S1(=O)=O")
"96 % of control"
>>> result("Cc1nc(N)nc(N)c1CCCOc1ccc(NC(=O)c2cccc(S(=O)(=O)F)c2)cc1")
"109 % of control"
>>> result("[Cl][Pt+2][Cl].[NH-]CC(=O)O.[NH-]CC(=O)O")
"98 % of control"
>>> result("CCOC1=NC(C)(C)CC(C)O1 (stereo not given)")
"103 % of control"
>>> result("O=C(O)C1CSCN1 (stereo not given)")
"95 % of control"
>>> result("CC1OC(n2cc(C(N)=O)c3c(N)ncnc32)C(O)C1O (stereo not given)")
"105 % of control"
>>> result("OC1C2COC(O2)C(O)C1O (stereo not given)")
"98 % of control"
>>> result("NC(Cc1ccc([N+](=O)[O-])cc1)C(=O)O (stereo not given)")
"96 % of control"
>>> result("O=C(O)C(CSC(c1ccccc1)(c1ccccc1)c1ccccc1)NC(c1ccccc1)c1ccccc1 (stereo not given)")
"98 % of control"
>>> result("NCCC(=O)CN")
"110 % of control"
>>> result("NS(N)(=O)=O")
"105 % of control"
>>> result("NC1(CO)COC(c2ccccc2)OC1 (stereo not given)")
"96 % of control"
>>> result("OC1(C2(O)c3ccccc3Oc3ccccc32)c2ccccc2Oc2ccccc21")
"99 % of control"
>>> result("COc1ccccc1NC(=O)CSC(N)=O")
"102 % of control"
>>> result("Cc1cc(C)[nH]c(=O)c1")
"106 % of control"
